System: MDA-N
assay.overview: NCI tumour cell line growth inhibition, 48 h
Active and inactive are the calls of the source. Cut-off read from the data, not from the text of the source: active = GI50 up to about 1.1 µM and inactive = higher.
Would you mind answering with one of these outcomes? true (1) for active, false (0) for inactive

Exam item: Which outcome did this test record for the compound O=C(CC1C=CCS1(=O)=O)NCc1ccccc1 (centres undefined) ?
Marked response: false (0)

Exam item: Which outcome did this test record for the compound O=C1NCN(c2ccccc2)C12CCN(CCCN1CCN(CCOC(c3ccccc3)c3ccccc3)CC1)CC2 ?
Marked response: true (1)

Exam item: Which outcome did this test record for the compound CCN(CC)CCNc1nc2ccc([N+](=O)[O-])cc2[n+]([O-])n1 ?
Marked response: false (0)

Exam item: Which outcome did this test record for the compound O=C1/C(=C/c2ccc(O)cc2)CCC1CNc1ccc(Cl)cc1 (centres undefined) ?
Marked response: false (0)

Exam item: Which outcome did this test record for the compound Clc1ccc(-c2nnc3sc4nc5ccccc5c-4nn23)c(Cl)c1 ?
Marked response: false (0)

Exam item: Which outcome did this test record for the compound Nc1nnc2oc3ccc4ccccc4c3cc1-2 ?
Marked response: false (0)

Exam item: Which outcome did this test record for the compound NCC(O)CNC(=O)c1ccc(-c2ccc(-c3ccc(C(=O)NCC(O)CN)cc3)o2)cc1 (centres undefined) ?
Marked response: false (0)

Exam item: Which outcome did this test record for the compound C[C@H](CCC1=NCCN1)[C@H]1CC[C@H]2[C@@H]3CC[C@@H]4C[C@H](O)CC[C@]4(C)[C@H]3C[C@H](O)[C@]12C ?
Marked response: false (0)

Exam item: Which outcome did this test record for the compound O=C(N/N=C/C=C/c1ccc([N+](=O)[O-])o1)c1ccc(C(=O)N/N=C/C=C/c2ccc([N+](=O)[O-])o2)cc1 ?
Marked response: false (0)

====

Test system: MOLT-4
assay.overview: NCI tumour cell line growth inhibition, 48 h
The source made the active and inactive calls. Cut-off read from the data, not from the text of the source: active = GI50 up to about 1.1 µM and inactive = higher.
Would you mind answering with one of these outcomes? active, inactive

molecule="CN(Cc1nc2c(N)nc(N)nc2nc1N)c1ccc(C(=O)NC(CCC(=O)O)C(=O)O)cc1 (centres undefined)" system_tested=MOLT-4 group_label=active
molecule=Cc1sccc1C(=S)Nc1ccc(Cl)c(/C=N/OC(C)(C)C)c1 system_tested=MOLT-4 group_label=inactive
molecule=Cc1nc2ccc(F)cc2c2c1CCS2 system_tested=MOLT-4 group_label=inactive
molecule=COc1c(OC)c(OC)c2c(=O)c(OC)c(-c3ccc4c(c3)OCO4)oc2c1OC system_tested=MOLT-4 group_label=inactive
molecule="O=C1CC2(CCC(O)(c3ccc(Cl)cc3)C(C(=O)c3ccc(Cl)cc3)C2)C(=O)c2ccccc2N1 (centres undefined)" system_tested=MOLT-4 group_label=inactive
molecule=CCOC(=O)Nc1c(C#N)[n+]([O-])c2cc(Cl)c(Cl)cc2[n+]1[O-] system_tested=MOLT-4 group_label=inactive
molecule="Nc1nnc(O)c2c1c(I)cn2C1OC(CO)C(O)C1O (centres undefined)" system_tested=MOLT-4 group_label=active
molecule=Clc1ccc(-c2nnc3sc4nc5ccccc5c-4nn23)c(Cl)c1 system_tested=MOLT-4 group_label=inactive

Let us examine a further case.
Exam item: Which outcome did this test record for the molecule CC(C)(C)C(=O)Oc1ccc(/C=C/C(=O)c2ccc(OC(=O)C(C)(C)C)cc2)cc1 ?
Marked response: inactive

====

Test system: SF-295
assay.overview: NCI tumour cell line growth inhibition, 48 h
Calls of active or inactive are those of the source. Cut-off read from the data, not from the text of the source: active = GI50 up to about 1.1 µM and inactive = higher.
endpoint.label: GI50

Worked examples, 5 compounds total:
compound="O=NC1C(Cl)C2CC1C1C(Br)C(Br)CC21 (stereo not given)" value_reported="> 100 µM (inactive)"
compound=CSC(=S)N(C)NC(=O)c1cccc(C(=O)NN(C)C(=S)SC)n1 value_reported="3.44 µM (inactive)"
compound="COC(=O)CC1CC2(C(=O)OC)c3[nH]c4ccccc4c3CCN2C1=O (stereo not given)" value_reported="> 100 µM (inactive)"
compound="NC(=S)NNCC(=O)CC(O)(C(F)(F)F)C(F)(F)Cl (stereo not given)" value_reported="> 100 µM (inactive)"
compound="Cc1ccc(C2SCC(=O)N2c2ccc(-n3c(-c4ccccc4)nc4ccccc4c3=O)cc2)cc1 (stereo not given)" value_reported="14.7 µM (inactive)"

Exam item: Kindly state the measured GI50 obtained for Cc1cc(Br)ccc1/N=N/c1c(C)nn(-c2ccccc2)c1-c1ccccc1 with SF-295.
Marked response: 75.2 µM (inactive)

Exam item: Kindly state the measured GI50 obtained for O=C1OC(Cl)C(N=P(c2ccccc2)(c2ccccc2)c2ccccc2)=C1Cl (stereo not given) with SF-295.
Marked response: > 100 µM (inactive)

Exam item: Kindly state the measured GI50 obtained for COc1ccccc1/C=C/c1ccnc2ccccc12 with SF-295.
Marked response: 14.2 µM (inactive)

Exam item: Kindly state the measured GI50 obtained for C[C@H](CCC1=NCCN1)[C@H]1CC[C@H]2[C@@H]3CC[C@@H]4C[C@H](O)CC[C@]4(C)[C@H]3C[C@H](O)[C@]12C with SF-295.
Marked response: 15.6 µM (inactive)

Exam item: Kindly state the measured GI50 obtained for O=[N+]([O-])c1ccc(S[C@@H]2[C@H]3c4c(-c5ccccc5)[nH]c(-c5ccccc5)c4[C@@H]2C[C@H]3Cl)cc1 with SF-295.
Marked response: 3.71 µM (inactive)
